# study system: UniProt P21453
# Sequence (P21453 whole entry, species assumed): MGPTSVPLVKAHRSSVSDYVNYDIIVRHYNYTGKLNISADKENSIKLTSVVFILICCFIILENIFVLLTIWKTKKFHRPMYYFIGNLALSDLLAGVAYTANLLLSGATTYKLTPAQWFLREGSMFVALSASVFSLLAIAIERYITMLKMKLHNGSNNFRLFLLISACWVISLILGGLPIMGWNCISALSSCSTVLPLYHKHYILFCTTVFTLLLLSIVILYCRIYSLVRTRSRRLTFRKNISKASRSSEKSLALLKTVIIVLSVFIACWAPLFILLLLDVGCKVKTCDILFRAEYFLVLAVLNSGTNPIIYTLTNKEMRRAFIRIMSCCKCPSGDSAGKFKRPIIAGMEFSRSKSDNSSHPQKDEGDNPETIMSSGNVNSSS
# method notes: S1P1 receptor agonism (EC50 statement)
attribute measured: EC50 (nM)

>  <molecule>
CCCc1ccc(COc2ccc3c(c2)CCC(CN2CC(C(=O)O)C2)=C3C)c(OC)c1 [Compound 1, ceralifimod]

>  <measurement>
11.8

$$$$

====

# study system: recombinant human FAAH (rhFAAH) (Homo sapiens, UniProt O00519)
# Sequence (O00519 whole entry): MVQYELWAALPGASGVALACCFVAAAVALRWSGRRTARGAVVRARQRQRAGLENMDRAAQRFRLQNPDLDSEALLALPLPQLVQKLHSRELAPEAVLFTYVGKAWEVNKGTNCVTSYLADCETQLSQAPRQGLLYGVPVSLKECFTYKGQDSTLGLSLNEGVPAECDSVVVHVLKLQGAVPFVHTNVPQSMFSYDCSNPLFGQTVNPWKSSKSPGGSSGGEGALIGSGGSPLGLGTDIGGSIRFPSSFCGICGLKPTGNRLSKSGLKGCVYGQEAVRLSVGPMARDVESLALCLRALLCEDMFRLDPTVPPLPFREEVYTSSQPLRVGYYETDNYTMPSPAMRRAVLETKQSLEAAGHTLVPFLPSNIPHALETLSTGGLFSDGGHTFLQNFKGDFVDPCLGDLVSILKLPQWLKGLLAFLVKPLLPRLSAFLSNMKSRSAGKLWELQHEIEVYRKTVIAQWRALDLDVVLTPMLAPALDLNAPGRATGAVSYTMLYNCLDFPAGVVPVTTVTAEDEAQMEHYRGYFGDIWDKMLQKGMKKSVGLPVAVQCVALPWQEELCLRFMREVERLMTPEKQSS
# method notes: FAAH substrate evaluation: formation of acid metabolite by purified recombinant human FAAH (rhFAAH)
# Type: biochemical
# condition: role: substrate; 1 μM test compound, 0.5 ng/μL rhFAAH, 1.25% ethanol or 1 μM PF-3845 (FAAH inhibitor), 0.1% BSA, Tris-EDTA pH 8.0, room temperature, 0-60 minutes
attribute measured: ke (observed rate constant for the acid metabolite formation)

>  <compound smiles>
CCCCN(C)C(=O)C1CN(CC2=C(C)c3ccc(OCc4ccc(CCC)cc4OC)cc3CC2)C1

>  <study system>
recombinant human FAAH (rhFAAH) (Homo sapiens, UniProt O00519)

>  <measurement>
C (ke is 0)

$$$$
>  <compound smiles>
CCCc1ccc(COc2ccc3c(c2)CCC(CN2CC(C(=O)N(C)CC)C2)=C3C)c(OC)c1

>  <study system>
recombinant human FAAH (rhFAAH) (Homo sapiens, UniProt O00519)

>  <measurement>
C (ke is 0)

$$$$
>  <compound smiles>
CCCc1ccc(COc2ccc3c(c2)CCC(CN2CC(C(=O)N(CC)CC)C2)=C3C)c(OC)c1

>  <study system>
recombinant human FAAH (rhFAAH) (Homo sapiens, UniProt O00519)

>  <measurement>
C (ke is 0)

$$$$

Data credit: patent US20260374751A1
